assay: Physostigmine pharmacokinetics and tissue concentrations in rats after intramuscular administration; format: in vivo, Male Sprague-Dawley rats; settings: rat, heart, im; 0.3 mg/kg intramuscular, 120 min; read-out: Tissue concentration of physostigmine, Heart
value.type: concentration at 2 h (ng/g)
Numbers only, in ng/g.

Prompt line: I'd like to know its concentration at 2 h. The compound in question is CNC(=O)Oc1ccc2c(c1)[C@]1(C)CCN(C)[C@@H]1N2C [Physostigmine, physostigmine]
Response line: 47.2

* * *

assay: Physostigmine pharmacokinetics and tissue concentrations in rats after intramuscular administration; format: in vivo, Male Sprague-Dawley rats; conditions: rat, spleen, im; 0.3 mg/kg intramuscular, 5 min; read-out: Tissue concentration of physostigmine, Spleen
value.type: concentration at 5 min (ng/g)
Give bare numbers, in ng/g.

Prompt line: I'd like to know its concentration at 5 min. The molecule in question is CNC(=O)Oc1ccc2c(c1)[C@]1(C)CCN(C)[C@@H]1N2C [Physostigmine, physostigmine]
Response line: 627

* * *

experiment: Physostigmine pharmacokinetics and tissue concentrations in rats after intramuscular administration; assay type: in vivo, Male Sprague-Dawley rats; details: rat, brain, im; 0.3 mg/kg intramuscular, 10 min; read-out: Tissue concentration of physostigmine, Brain
value.type: concentration at 10 min (ng/g)
Numbers only, in ng/g.

Prompt line: I'd like to know its concentration at 10 min. The compound in question is CNC(=O)Oc1ccc2c(c1)[C@]1(C)CCN(C)[C@@H]1N2C
Response line: 292

* * *

assay: Physostigmine pharmacokinetics and tissue concentrations in rats after intramuscular administration; format: in vivo, Male Sprague-Dawley rats; conditions: rat, fat, im; 0.3 mg/kg intramuscular, 90 min; read-out: Tissue concentration of physostigmine, Fat
value.type: concentration at 1.5 h

Prompt line: I'd like to know its concentration at 1.5 h. The compound in question is CNC(=O)Oc1ccc2c(c1)[C@]1(C)CCN(C)[C@@H]1N2C
Response line: 80.5 ng/g

* * *

test: Physostigmine pharmacokinetics and tissue concentrations in rats after intramuscular administration; assay type: in vivo, Male Sprague-Dawley rats; settings: rat, fat, im; 0.3 mg/kg intramuscular, 30 min; read-out: Tissue concentration of physostigmine, Fat
value.type: concentration at 0.5 h (ng/g)
Numbers only, in ng/g.

Prompt line: I'd like to know its concentration at 0.5 h. The compound in question is CNC(=O)Oc1ccc2c(c1)[C@]1(C)CCN(C)[C@@H]1N2C
Response line: 292

* * *

experiment: Physostigmine pharmacokinetics and tissue concentrations in rats after intramuscular administration; format: in vivo, Male Sprague-Dawley rats; details: rat, heart, im; 0.3 mg/kg intramuscular, 30 min; read-out: Tissue concentration of physostigmine, Heart
value.type: concentration at 0.5 h (ng/g)
Answers are plain numbers, in ng/g.

Prompt line: I'd like to know its concentration at 0.5 h. The compound in question is CNC(=O)Oc1ccc2c(c1)[C@]1(C)CCN(C)[C@@H]1N2C
Response line: 213

* * *

test: Physostigmine pharmacokinetics and tissue concentrations in rats after intramuscular administration; format: in vivo, Male Sprague-Dawley rats; conditions: rat, brain, im; 0.3 mg/kg intramuscular, 2.5 min; read-out: Tissue concentration of physostigmine, Brain
value.type: concentration at 2.5 min (ng/g)
Answers are plain numbers, in ng/g.

Prompt line: I'd like to know its concentration at 2.5 min. The molecule in question is CNC(=O)Oc1ccc2c(c1)[C@]1(C)CCN(C)[C@@H]1N2C [Physostigmine, physostigmine]
Response line: 331
